Entry source: ChEMBL document CHEMBL1133987

molecular target: Histone deacetylase; assay: Inhibitory activity against histone deacetylase (HDAC) derived from partially purified extracts of human HeLa cells
observable: IC50 (pM)

>>> reading("CC[C@H](C)[C@@H]1NC(=O)[C@H](Cc2cn(OC)c3ccccc23)NC(=O)[C@H](CCCCCC(=O)OC)NC(=O)[C@H]2CCCCN2CC1=O")
400

(a) CC[C@H](C)[C@@H]1NC(=O)[C@H](Cc2cn(OC)c3ccccc23)NC(=O)[C@H](CCCCCC(=O)C(C)O)NC(=O)[C@H]2CCCCN2CC1=O (stereo partly drawn)
(b) CCC(=O)C1OC1CCC[C@@H]1NC(=O)[C@H]2CCCCN2CC(=O)[C@H]([C@@H](C)CC)NC(=O)[C@H](Cc2cn(OC)c3ccccc23)NC1=O (stereo partly drawn)
Q) Higher IC50 between a and b ? Write down the label of the entry you select.
A) b
